What Morningglory plant response rating was measured for each of the following?
# Tested on: morningglory
# METHOD: Test B pre-/postemergence herbicide test
# Format: in vivo, Ipomoea coccinea
# EXPERIMENTAL PARAMETERS: postemergence, 500 g ai/ha; visual rating, scale 0 (no effect) to 100 (complete control)
# Description: […] At the same time, plants selected from these crop and weed species and also blackgrass (Alopecurus myosuroides Huds.), wheat (Triticum aestivum L.) and wild oat (Avena fatua L.) were treated with postemergence applications of test chemicals formulated in the same manner. […] Treated plants and controls were maintained in a greenhouse for 13 to 15 days, after which time all species were compared to controls and visually evaluated. […]
Write the value as a bare number.

Asked: Which Morningglory plant response rating value is on record for `COC(=O)c1cccc(NC(=O)c2sc(C(C)(C)C)nc2C)c1` ?
Given back: 0

Asked: Lookup `C=CCNC(=O)c1cccc(NC(=O)c2sc(C(C)(C)C)nc2CC)c1`
Given back: 20

Asked: Lookup `CCNC(=O)c1cccc(NC(=O)c2cn(C(C)(C)C)nc2C)c1`
Given back: 70

Asked: Lookup `CCN(CC)C(=O)c1cccc(NC(=O)c2nn(C(C)(C)C)cc2Br)c1`
Given back: 0

Asked: Lookup `CC(C)NS(=O)(=O)c1cccc(NC(=O)c2cc(C(C)(C)C)nn2C)c1`
Given back: 10

----------
What Corn plant response rating was measured for each of the following?
# System: corn
# METHOD: Test B pre-/postemergence herbicide test
# Type: in vivo, Zea mays
# EXPERIMENTAL PARAMETERS: postemergence, 500 g ai/ha; scale 0 to 100, 0 is no effect, 100 is complete control
# Procedure: […] At the same time, plants selected from these crop and weed species and also blackgrass (Alopecurus myosuroides Huds.), wheat (Triticum aestivum L.) and wild oat (Avena fatua L.) were treated with postemergence applications of test chemicals formulated in the same manner. […] Treated plants and controls were maintained in a greenhouse for 13 to 15 days, after which time all species were compared to controls and visually evaluated. […]
Write the value as a bare number.

Asked: Which Corn plant response rating value is on record for `CCNC(=O)c1ccc(F)c(NC(=O)c2cn(C(C)(C)C)nc2C)c1` ?
Given back: 0

Asked: Lookup `CCn1nc(C(C)(C)C)cc1C(=O)Nc1cc(OCCF)ccc1F`
Given back: 20

Asked: Lookup `CCNC(=O)c1cccc(NC(=O)c2cc(C3(C)CC3)nn2CC)c1`
Given back: 30

Asked: Lookup `CCn1nc(C(C)(C)C)cc1C(=O)Nc1cc(C(=O)N(C)C)c(F)cc1F`
Given back: 10

Asked: Lookup CCOC(=O)c1ccc(F)c(NC(=O)C2CN(C(C)(C)C)N=C2CC)c1 (racemic)
Given back: 20

----------
# System: lambsquarters
# METHOD: Test B pre-/postemergence herbicide test
# Format: in vivo, Chenopodium album
# EXPERIMENTAL PARAMETERS: postemergence, 125 g ai/ha; visual rating, scale 0 (no effect) to 100 (complete control)
What Lambsquarters plant response rating was measured for each of the following?
Write the value as a bare number.

Asked: Which Lambsquarters plant response rating value is on record for `CC(=NO)c1cc(NC(=O)c2cc(C(C)(C)C)nn2C)ccc1F` ?
Given back: 10

Asked: Lookup `COC(=O)c1cccc(NC(=O)c2sc(C(C)(C)C)nc2C)c1`
Given back: 0

Asked: Lookup `C=CCNC(=O)c1cccc(NC(=O)c2sc(C(C)(C)C)nc2CC)c1`
Given back: 50

----------
# Tested on: redroot pigweed
# METHOD: Test A pre-/postemergence herbicide test
# Assay type: in vivo, Amaranthus retroflexus
# EXPERIMENTAL PARAMETERS: Postemergence, 500 g ai/ha; 0 to 100 scale, 0 no effect, 100 complete control
What Pigweed plant response rating was measured for each of the following?
Write the value as a bare number.

Asked: Which Pigweed plant response rating value is on record for `CC(=NO)c1cccc(NC(=O)c2cc(C(C)(C)C)nn2CCF)c1` ?
Given back: 95

Asked: Lookup `CCn1nc(C(C)(C)C)cc1C(=O)Nc1cccc(C(=O)OC(C)(C)C)c1`
Given back: 5

Asked: Lookup `CCn1nc(C(C)(C)C)nc1C(=O)Nc1cccc(OC(F)(F)F)c1`
Given back: 40

Asked: Lookup `CCc1nc(C(C)(C)C)sc1C(=O)Nc1cccc(C(=O)NCC(F)(F)F)c1`
Given back: 15

----------
What Blackgrass plant response rating was measured for each of the following?
# Tested on: blackgrass
# METHOD: Test B postemergence herbicide test
# Type: in vivo, Alopecurus myosuroides
# EXPERIMENTAL PARAMETERS: postemergence, 500 g ai/ha; visual rating, scale 0 (no effect) to 100 (complete control)
Write the value as a bare number.

Asked: Observed Blackgrass plant response rating on blackgrass for `CCc1nn(C(C)(C)C)cc1C(=O)Nc1ccc(F)c(C(=O)N(CC)CC)c1` , please.
Given back: 10

Asked: Lookup `CCOC(=O)c1cc(N(C(C)=O)C(=O)c2cc(C(C)(C)C)nn2CC)ccc1C`
Given back: 20

Asked: Lookup CCC(C)c1cc(C(=O)Nc2cccc(C(C)=NO)c2)n(C)n1 (centres unmarked)
Given back: 10

Asked: Lookup `CCNC(=O)c1cccc(NC(=O)c2sc(C(C)(C)C)nc2CC)n1`
Given back: 40

Asked: Lookup `CCN(CC)C(=O)c1cccc(NC(=O)c2nn(C(C)(C)C)cc2C(F)(F)F)c1`
Given back: 10

Asked: Lookup `CCn1nc(C(C)(C)C)cc1C(=O)Nc1cccc(SC(F)(F)F)c1`
Given back: 60

Asked: Lookup `CCc1cn(C(C)(C)C)nc1C(=O)Nc1cc(C(=O)N(CC)CC)ccn1`
Given back: 0

Asked: Lookup `CC(C)NS(=O)(=O)c1cccc(NC(=O)c2cc(C(C)(C)C)nn2C)c1`
Given back: 0

----------
What Barnyardgrass plant response rating was measured for each of the following?
# Test system: barnyardgrass
# METHOD: Test A pre-/postemergence herbicide test
# Type: in vivo, Echinochloa crus-galli
# EXPERIMENTAL PARAMETERS: Preemergence, 500 g ai/ha; visual rating, 0 to 100 scale (0 no effect, 100 complete control)
Write the value as a bare number.

Asked: Which Barnyardgrass plant response rating value is on record for `CCOC(=O)c1ccc(F)c(NC(=O)c2cc(C(C)(C)C)nn2CC)c1` ?
Given back: 20

Asked: Lookup `CC(=NO)c1cc(NC(=O)c2cc(C(C)(C)C)nn2C)ccc1F`
Given back: 85

Asked: Lookup `C#CCNC(=O)c1cccc(NC(=O)c2cc(C(C)(C)C)nn2CC)c1`
Given back: 90

Asked: Lookup `CCn1nc(C(C)(C)C)cc1C(=O)Nc1cccc(C(=O)OC(C)(C)C)c1`
Given back: 0

Asked: Lookup `CCn1nc(C(C)(C)C)cc1C(=O)Nc1cccc(C(=O)OCC(F)(F)F)c1`
Given back: 0

Asked: Lookup CCC(C)c1cc(C(=O)Nc2cccc(C(C)=NO)c2)n(C)n1 (stereo not shown)
Given back: 30

Asked: Lookup `CCn1nc(C(C)(C)C)cc1C(=O)Nc1cccc(SC(F)(F)F)c1`
Given back: 40
